Provide the reported Activity of each item.
Target: Cannabinoid receptor 2 (Homo sapiens)
Sequence (P34972 whole entry): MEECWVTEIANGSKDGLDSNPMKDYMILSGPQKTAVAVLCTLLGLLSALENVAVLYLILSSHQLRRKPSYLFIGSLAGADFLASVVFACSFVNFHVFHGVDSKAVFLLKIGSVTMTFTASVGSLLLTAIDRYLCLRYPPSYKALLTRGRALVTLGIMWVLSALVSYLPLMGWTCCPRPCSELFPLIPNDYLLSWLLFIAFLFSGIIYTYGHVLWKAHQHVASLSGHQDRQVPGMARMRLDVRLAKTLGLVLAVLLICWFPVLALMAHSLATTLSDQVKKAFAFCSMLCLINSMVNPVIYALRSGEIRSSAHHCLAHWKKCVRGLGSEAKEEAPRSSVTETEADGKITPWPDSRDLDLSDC
Experiment: Agonist activity at human CB2-receptor expressed in CHO-K1 cells coexpressing G-alpha16 at 10 uM by Fluo-4-AM dye based calcium mobilization assay
Type: functional, cell-based

Below, each entry is followed by its recorded Activity result.
CCCCCn1cc(C(=O)NC23CC4CC(CC(C4)C2)C3)c2cccnc21	> 50%
O=C(NC12CC3CC(CC(C3)C1)C2)c1cn(CCN2CCOCC2)c2ccncc12	< 50%
O=C(NC12CC3CC(CC(C3)C1)C2)c1cc2ncccc2n1CCN1CCOCC1	< 50%

Look up Activity for the entries below, preserving their order.
1. O=C(NC12CC3CC(CC(C3)C1)C2)c1cn(CCN2CCOCC2)c2cccnc12
2. O=C(NC12CC3CC(CC(C3)C1)C2)c1c[nH]c2ncccc12
3. CCCCCn1c(C(=O)NC23CC4CC(CC(C4)C2)C3)nc2ccccc21
4. CCCCCn1cc(C(=O)NC23CC4CC(CC(C4)C2)C3)c2ncccc21
5. O=C(NC12CC3CC(CC(C3)C1)C2)c1nn(CCN2CCOCC2)c2ccccc12
6. O=C(NC12CC3CC(CC(C3)C1)C2)c1cc2ncccc2[nH]1
7. O=C(NC12CC3CC(CC(C3)C1)C2)c1cc2cnccc2[nH]1

1: < 50%; 2: < 50%; 3: > 50%; 4: < 50%; 5: > 50%; 6: > 50%; 7: > 50%

Look up Activity for the entries below, preserving their order.
1. CCCCCn1c(C(=O)NC23CC4CC(CC(C4)C2)C3)cc2cnccc21
2. O=C(NC12CC3CC(CC(C3)C1)C2)c1nc2ccccc2n1CCN1CCOCC1
3. O=C(NC12CC3CC(CC(C3)C1)C2)c1c[nH]c2cccnc12
4. O=C(NC12CC3CC(CC(C3)C1)C2)c1nc2ccccc2n1CCCCCO
5. O=C(NC12CC3CC(CC(C3)C1)C2)c1cn(CCN2CCOCC2)c2ncccc12
6. CCCCCn1nc(C(=O)NC23CC4CC(CC(C4)C2)C3)c2ccccc21

< 50%
< 50%
< 50%
> 50%
> 50%
> 50%

Look up Activity for the entries below, preserving their order.
1. O=C(NC12CC3CC(CC(C3)C1)C2)c1cc2cccnc2n1CCN1CCOCC1
2. CCCCCn1c(C(=O)NC23CC4CC(CC(C4)C2)C3)cc2cccnc21
3. O=C(NC12CC3CC(CC(C3)C1)C2)c1cc2cnccc2n1CCN1CCOCC1

1: < 50%; 2: > 50%; 3: < 50%

Look up Activity for the entries below, preserving their order.
1. O=C(NC12CC3CC(CC(C3)C1)C2)c1nc2ccccc2[nH]1
2. CCCCCn1c(C(=O)NC23CC4CC(CC(C4)C2)C3)cc2ncccc21

["> 50%", "> 50%"]
